Reference source for all entries: patent US8952024B2

Test system: barnyardgrass (Echinochloa crus-galli)
Experiment: Test A pre-/postemergence plant response
Format: in vivo
Conditions: Postemergence, 500 g ai/ha; 0 to 100 scale, 0 = no effect, 100 = complete control; approx. ten days
measurement label: Plant response rating, Barnyardgrass
// keep it numeric: no unit symbol after the value

CCCn1c(-c2cccc(Br)c2)ncc(C(=O)C2=C(O)CCCC2=O)c1=O: 90
O=C1CCCC(O)=C1C(=O)c1cnc(-c2ccccc2)n(C2CCCC2)c1=O: 90

(Q) Determine from records and report Plant response rating, Barnyardgrass for COCC(C)n1c(-c2ccccc2)ncc(C(=O)C2=C(O)CCCC2=O)c1=O (stereo not drawn)
(A) 90
